Below, each entry is listed alongside its reported protein stability index.
B1: MATN2 (parent)
chain: FSLKTFKRKSEVERAVKRMRHLST

Variants of: B1
Experiment: protein stability index of a GFP-peptide fusion (GPS, HEK-293T) (PSI 1-6); higher = more stable;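 note: lentivirally expressed fusions sorted by FACS into six bins by GFP to DsRed ratio, PSI derived from sequencing read proportions per bin multiplied by bin number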
Conditions: c terminus: a fixed tail appended
Please reply with the number alone, leaving off any unit.

construct-sequence	protein stability index
FSLKTFPRKSEVERAVKRMRHLST [K7P]	2.05
FSLKTFKFKSEVERAVKRMRHLST [R8F]	1.43
FSLKTFLRKSEVERAVKRMRHLST [K7L]	1.15
FSLFTFKRKSEVERAVKRMRHLST [K4F]	1.85
FSLKTFKRKSEYERAVKRMRHLST [V12Y]	2.12
FSLKTFKRKSEVENAVKRMRHLST [R14N]	2.46

Lookup result for FSLKTFKRKSEVERAVCRMRHLST [K17C] ; measured protein stability index: 2.35

# protein stability index (variant: FSLKTFKRKSEVERAVKIMRHLST [R18I] ) is 2.16

protein stability index for FSLKTMKRKSEVERAVKRMRHLST [F6M] is 2.29

The measured protein stability index associated with FSAKTFKRKSEVERAVKRMRHLST [L3A] reads 2.94

FSLKTFKRKSEVERAWKRMRHLST [V16W] has a reported protein stability index of 1.76

Value of protein stability index reported for the variant FSLKTFKRKSEVERAVKRMGHLST [R20G] is 2.38

Per the record, FSCKTFKRKSEVERAVKRMRHLST [L3C] has protein stability index of 1.93
